B1: library; numbered along this chain (parent)
chain: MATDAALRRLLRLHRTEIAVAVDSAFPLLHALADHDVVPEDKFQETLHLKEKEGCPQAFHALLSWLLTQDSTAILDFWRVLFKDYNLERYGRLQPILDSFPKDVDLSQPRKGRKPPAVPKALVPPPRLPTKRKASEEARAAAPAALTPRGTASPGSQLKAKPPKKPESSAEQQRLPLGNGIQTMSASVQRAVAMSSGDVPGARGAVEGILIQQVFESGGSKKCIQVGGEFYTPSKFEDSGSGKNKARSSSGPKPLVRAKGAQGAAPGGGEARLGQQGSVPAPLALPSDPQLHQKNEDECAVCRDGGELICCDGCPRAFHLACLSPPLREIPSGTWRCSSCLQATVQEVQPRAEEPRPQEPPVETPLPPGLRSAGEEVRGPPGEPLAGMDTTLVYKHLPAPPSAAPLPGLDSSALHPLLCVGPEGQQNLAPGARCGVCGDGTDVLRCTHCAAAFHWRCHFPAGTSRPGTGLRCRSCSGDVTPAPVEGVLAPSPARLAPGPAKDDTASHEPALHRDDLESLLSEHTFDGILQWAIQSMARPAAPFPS

Variants of: B1
experimentalDetails: AIRE transcriptional activation functional score (insulin promoter-GFP; nonsense median 0, synonymous median 1) (normalised score); higher = higher AIRE activity (more reporter activation)
cond: with insulin promoter-GFP reporter in HEK293
experimentalReadout: AIRE transcriptional activation functional score

variantLabel: C310V
reported: 0.912
--
variantLabel: Q530R
reported: -0.0677
--
variantLabel: A19I
reported: -0.333
--
variantLabel: P509Y
reported: 1.11
--
variantLabel: K131G
reported: -0.226
--
variantLabel: D503G
reported: 0.835
--
variantLabel: S187I
reported: 0.599
--
variantLabel: Q57I
reported: 0.761
--
variantLabel: H512Y
reported: 0.777
--
variantLabel: S168Y
reported: 1.37
--
variantLabel: P407F
reported: 1.2
--
variantLabel: F236G
reported: 0.726
--
variantLabel: G305D
reported: 1.1
--
variantLabel: L470Y
reported: 0.549
--
variantLabel: C457A
reported: 0.0339
